# Tested on: H3255
# experiment.notes: relative viability (nuclei count vs DMSO), 5 days (fraction); higher = more cells survive
# condition.details: first compound 0.253 µM
measure.name: relative viability
Answer using only a numeral; do not append any unit.

Return relative viability measured with H3255 given this molecule: Cc1cnc(-c2cnc(NCCNc3ccc(C#N)cn3)nc2-c2ccc(Cl)cc2Cl)[nH]1 + CCNC(=O)c1noc(-c2cc(C(C)C)c(O)cc2O)c1-c1ccc(CN2CCOCC2)cc1 [Luminespib] (partner 0.01 µM)
0.933

relative viability of O=c1[nH]c2ccccc2n1C1CCN(CCCC(c2ccc(F)cc2)c2ccc(F)cc2)CC1 [Pimozide] + Cc1nc(NC(=O)N2CCC[C@H]2C(N)=O)sc1-c1ccnc(C(C)(C)C(F)(F)F)c1 [Alpelisib] (partner 2 µM) on H3255?
0.569

For the record O=c1[nH]c2ccccc2n1C1CCN(CCCC(c2ccc(F)cc2)c2ccc(F)cc2)CC1 [Pimozide] + O=C(c1cc(Cc2n[nH]c(=O)c3ccccc23)ccc1F)N1CCN(C(=O)C2CC2)CC1 [Olaparib] (partner 8 µM) , what value of relative viability is listed for H3255?
0.511

Notebook entry, H3255 assay: relative viability of Cc1cnc(-c2cnc(NCCNc3ccc(C#N)cn3)nc2-c2ccc(Cl)cc2Cl)[nH]1 + CC(C)C[C@H](NC(=O)[C@H](Cc1ccccc1)NC(=O)c1cnccn1)B(O)O [Bortezomib] (partner 0.002 µM) = ?
0.563
